system: P. falciparum stage V gametocytes; parameters: BacTiter-Glo ATP luminescence viability of purified stage V gametocytes in 384-well plates, per cent inhibition versus DMSO; settings: 48 h, 5 µM; inhibitor
Screen size: about 13,000 compounds; about 3,200 (25%) showed an effect of 50% or more. The list shows a part of the results.
Measured parameter: % Inhibition (%)

>  <Molecule>
Cc1ccc2[nH]ncc2c1N(CC1CCCCC1)c1ccnc(Nc2ccc(OCC(O)CN3CC=CCC3)cc2)n1 (centres unmarked)

>  <Measured parameter>
% Inhibition

>  <Reported>
108.6

$$$$
>  <Molecule>
CCCOc1ccc2ccccc2c1CNCCCCCCNCc1c(OCCC)ccc2ccccc12

>  <Measured parameter>
% Inhibition

>  <Reported>
143.6

$$$$
>  <Molecule>
CC(C)n1c(C2CCN(CC3CCN(C(=O)/C=C/c4ccc(Cl)c(Cl)c4)CC3)CC2)nc2ccccc21

>  <Measured parameter>
% Inhibition

>  <Reported>
-15.48

$$$$
>  <Molecule>
COc1cc(Cc2cnc(N)nc2N)cc(OCCCCCC(=O)O)c1OC

>  <Measured parameter>
% Inhibition

>  <Reported>
-23.13

$$$$
>  <Molecule>
CN1CCCC(OC(=O)c2ccccc2)C1 (centres unmarked)

>  <Measured parameter>
% Inhibition

>  <Reported>
3.276

$$$$
>  <Molecule>
COc1cccc(CN2CCCC(CCC(=O)Nc3ccc(C(F)(F)F)cc3)C2)c1O (centres unmarked)

>  <Measured parameter>
% Inhibition

>  <Reported>
-32.93

$$$$
>  <Molecule>
CCOc1cc(OCC)c2ccccc2c1CNCCCCCCNCc1c(OCC)cc(OCC)c2ccccc12

>  <Measured parameter>
% Inhibition

>  <Reported>
121.9

$$$$
>  <Molecule>
Oc1ccc2ccccc2c1CNCC1CCCCC1

>  <Measured parameter>
% Inhibition

>  <Reported>
2.485

$$$$
>  <Molecule>
CCCCCCn1c(Sc2ccc(C#N)c([N+](=O)[O-])c2)nnc1-c1cccc(Cl)c1

>  <Measured parameter>
% Inhibition

>  <Reported>
24.59

$$$$
>  <Molecule>
CC(C)(C)c1ccc(CN2CCC(CNC(=O)c3cc(-c4cccc(C(F)(F)F)c4)cs3)C2)cc1 (centres unmarked)

>  <Measured parameter>
% Inhibition

>  <Reported>
107

$$$$
>  <Molecule>
Oc1ccc2ccccc2c1CNCCC1CCCCC1

>  <Measured parameter>
% Inhibition

>  <Reported>
-1.678

$$$$
>  <Molecule>
Clc1cc(Nc2ncnc3sc(C#Cc4ncc[nH]4)cc23)ccc1OCc1ccccn1

>  <Measured parameter>
% Inhibition

>  <Reported>
-6.463

$$$$
>  <Molecule>
COc1ccc(S(=O)(=O)NC2CCN(c3ccnc4cc(Cl)ccc34)C2)cc1 (centres unmarked)

>  <Measured parameter>
% Inhibition

>  <Reported>
9.561

$$$$
>  <Molecule>
COc1ccc(Nc2nccc(N3CCC(NC(=O)Nc4cc(C)ccc4C)C3)n2)cc1 (centres unmarked)

>  <Measured parameter>
% Inhibition

>  <Reported>
-63.4

$$$$
>  <Molecule>
COC1(C)Oc2ccc3cccc([N+](=O)[O-])c3c2C1=O (centres unmarked)

>  <Measured parameter>
% Inhibition

>  <Reported>
-5.605

$$$$
>  <Molecule>
c1cc(COc2ccc(C3=NCCN3)cc2)nc(COc2ccc(C3=NCCN3)cc2)c1

>  <Measured parameter>
% Inhibition

>  <Reported>
-1.887

$$$$
>  <Molecule>
O=C(O[C@@H]1CN[C@H](C#Cc2cc3c(Nc4ccc5c(cnn5Cc5ccccc5)c4)ncnc3s2)C1)N1CCCC1

>  <Measured parameter>
% Inhibition

>  <Reported>
21.76

$$$$
>  <Molecule>
Cc1ccc(NC(=O)Nc2ccc(Cl)cc2)cc1-c1ccc(C(=O)Nc2ccncc2)cc1

>  <Measured parameter>
% Inhibition

>  <Reported>
-59.17

$$$$
>  <Molecule>
O=C(/C=C/c1ccc(Cl)c(Cl)c1)N1CCC(CN2CCC(c3c(-c4ccc(F)cc4)[nH]c4ccccc34)CC2)CC1

>  <Measured parameter>
% Inhibition

>  <Reported>
18.04

$$$$
>  <Molecule>
CCCCCCOc1ccc2ccccc2c1CNCCCCCCNCc1c(OCCCCCC)ccc2ccccc12

>  <Measured parameter>
% Inhibition

>  <Reported>
142.3

$$$$
